biological target: AMP-activated protein kinase, AMPK (Homo sapiens) (UniProt P54646+O43741+P54619+Q9UGJ0+Q9Y478+Q13131+Q9UGI9); assay: AMP-dependent Kinase enzyme assay. An in vitro enzyme assay that detects ADP turnover that is directly proportional to AMPK activity. This uses naive AMPK that is activated during the assay with MK-8722; type: functional; design: scale not given: direction of the effect not stated beside the values; settings: 30 µM

{"TEST SMILES": "CN(C)CCNC(=O)CNC(=O)N1CCc2c([nH]c3ccc(Cl)cc23)C1", "Percent Effect / %": 9.82}
{"TEST SMILES": "O=C([C@H]1C[C@H]2OCC[C@H]2N(C(=O)C2CCOCC2)C1)N1CCCCO1", "Percent Effect / %": -3.93}
{"TEST SMILES": "CCc1nnc2n1CCN(Cc1csc(-c3ccsc3)n1)C2", "Percent Effect / %": 1.22}

====

Biological target: Tyrosyl-tRNA synthetase, putative (Trypanosoma cruzi (strain CL Brener)) (UniProt Q4DSP6)
Sequence (whole entry): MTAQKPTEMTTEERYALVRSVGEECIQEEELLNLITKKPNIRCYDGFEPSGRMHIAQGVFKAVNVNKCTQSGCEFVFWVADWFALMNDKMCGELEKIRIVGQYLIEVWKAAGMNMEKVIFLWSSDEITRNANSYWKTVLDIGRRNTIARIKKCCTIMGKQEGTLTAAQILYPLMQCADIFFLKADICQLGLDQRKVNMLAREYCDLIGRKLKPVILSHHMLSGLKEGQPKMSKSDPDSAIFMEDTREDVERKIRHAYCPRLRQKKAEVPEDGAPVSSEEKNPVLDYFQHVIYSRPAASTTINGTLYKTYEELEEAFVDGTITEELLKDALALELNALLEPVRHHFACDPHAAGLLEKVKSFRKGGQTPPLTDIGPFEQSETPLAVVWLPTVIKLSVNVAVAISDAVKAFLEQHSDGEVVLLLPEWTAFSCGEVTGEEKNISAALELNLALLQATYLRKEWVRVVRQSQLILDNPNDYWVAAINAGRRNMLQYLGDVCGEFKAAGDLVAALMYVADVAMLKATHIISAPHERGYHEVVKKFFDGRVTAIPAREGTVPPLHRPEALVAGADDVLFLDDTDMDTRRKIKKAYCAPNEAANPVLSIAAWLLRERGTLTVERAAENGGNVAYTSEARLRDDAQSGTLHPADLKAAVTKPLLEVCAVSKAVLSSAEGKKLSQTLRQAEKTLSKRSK
Assay: Trypanosoma cruzi tyrosyl tRNA synthetase (TcYRS) SOP
Type: functional
Parameters: scale not given: direction of the effect not stated beside the values
Settings: 30 µM

{"TEST SMILES": "O=C(c1ncccn1)N1C[C@H]2CCC[C@@]2(COCC2CCOCC2)C1", "STUDY TARGET": "Tyrosyl-tRNA synthetase, putative (Trypanosoma cruzi (strain CL Brener)) (UniProt Q4DSP6)", "Percent Effect (%)": 15.4}
{"TEST SMILES": "O=C(NCC1CC1)Nc1cnc2cc(Cl)ccc2c1O", "STUDY TARGET": "Tyrosyl-tRNA synthetase, putative (Trypanosoma cruzi (strain CL Brener)) (UniProt Q4DSP6)", "Percent Effect (%)": -1.3}
{"TEST SMILES": "COc1ccccc1OCc1cc(C(=O)N2CCN[C@H](C)C2)n[nH]1", "STUDY TARGET": "Tyrosyl-tRNA synthetase, putative (Trypanosoma cruzi (strain CL Brener)) (UniProt Q4DSP6)", "Percent Effect (%)": 12.2}
